- tested target: B-Raf (Homo sapiens)
- Sequence (P15056 whole entry): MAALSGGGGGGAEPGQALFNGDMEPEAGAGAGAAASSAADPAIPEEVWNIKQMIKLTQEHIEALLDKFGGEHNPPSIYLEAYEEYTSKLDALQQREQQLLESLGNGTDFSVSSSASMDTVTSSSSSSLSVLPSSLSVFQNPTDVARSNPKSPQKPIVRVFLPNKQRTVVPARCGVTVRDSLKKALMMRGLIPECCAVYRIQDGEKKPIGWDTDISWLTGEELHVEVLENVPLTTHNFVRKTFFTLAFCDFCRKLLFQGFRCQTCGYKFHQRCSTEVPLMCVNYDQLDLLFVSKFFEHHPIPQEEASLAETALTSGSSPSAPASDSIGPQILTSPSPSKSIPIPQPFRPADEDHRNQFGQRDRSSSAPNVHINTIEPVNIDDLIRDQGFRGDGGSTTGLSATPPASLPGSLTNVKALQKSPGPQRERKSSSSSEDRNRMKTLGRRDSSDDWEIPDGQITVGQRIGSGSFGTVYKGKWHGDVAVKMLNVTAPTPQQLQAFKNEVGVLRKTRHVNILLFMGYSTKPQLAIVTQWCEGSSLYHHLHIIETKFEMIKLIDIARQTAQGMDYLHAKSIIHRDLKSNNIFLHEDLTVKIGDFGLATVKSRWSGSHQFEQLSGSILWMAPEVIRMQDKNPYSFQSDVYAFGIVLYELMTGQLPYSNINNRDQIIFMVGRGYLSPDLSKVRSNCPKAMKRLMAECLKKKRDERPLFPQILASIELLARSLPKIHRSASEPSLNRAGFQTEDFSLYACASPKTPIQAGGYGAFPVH
- test summary: B-Raf Accelerated MEK ATPase assay (BRAMA), Method A or B
- Assay type: biochemical
- assay setup: Method B: final MEK 150 nM, single end point read
pIC50: −log10 of the molar value.
Listing of recorded pIC50 by entry.

These solved cases illustrate the format of a correct answer.
[
  {
    "compound string": "O=S(=O)(Nc1cc(-c2nc(N3CCOCC3)sc2-c2ccnc(Nc3ccc4c(c3)OCCO4)n2)ccc1F)c1c(F)cccc1F",
    "tested target": "B-Raf (Homo sapiens)",
    "parameter": "pIC50",
    "result": "6.00 to 7.00"
  },
  {
    "compound string": "CC(C)c1nc(-c2ccc(F)c(NS(=O)(=O)c3c(F)cccc3F)c2)c(-c2ccnc(Nc3ccncn3)n2)s1",
    "tested target": "B-Raf (Homo sapiens)",
    "parameter": "pIC50",
    "result": "6.00 to 7.00"
  },
  {
    "compound string": "COc1cc(N2CCN(CCS(C)(=O)=O)CC2)c(C)cc1Nc1nccc(-c2sc(C(C)C)nc2-c2cc(NS(=O)(=O)c3c(F)cccc3F)ccc2F)n1",
    "tested target": "B-Raf (Homo sapiens)",
    "parameter": "pIC50",
    "result": "6.00 to 7.00"
  },
  {
    "compound string": "O=S(=O)(Nc1cc(-c2nc(N3CCOCC3)sc2-c2ccnc(Nc3ccc(N4CCOCC4)nc3)n2)ccc1F)c1c(F)cccc1F",
    "tested target": "B-Raf (Homo sapiens)",
    "parameter": "pIC50",
    "result": "> 7.00"
  },
  {
    "compound string": "COc1c(Nc2nccc(-c3sc(C(C)C)nc3-c3cccc(NS(=O)(=O)c4c(F)cccc4F)c3)n2)ccc(N2CCN(CCS(C)(=O)=O)CC2)c1C",
    "tested target": "B-Raf (Homo sapiens)",
    "parameter": "pIC50",
    "result": "> 7.00"
  }
]

Lab note: next compound to report on.
Would you mind telling me what pIC50 value was observed for CC(C)c1nc(-c2ccc(F)c(NS(=O)(=O)c3c(F)cccc3F)c2)c(-c2ccnc(Nc3ccc(N4CCN(CCS(C)(=O)=O)CC4)c(F)c3)n2)s1 ?
> 7.00
